Assay: yeast display, Sf9 membrane polyspecificity reagent, FACS + sequencing; frameworks hold sequencing errors
observable: polyreactivity (PSR sort gate)

QVQLVESGGGLVQAGGSLRLSCAASGFIFCTNAMGWYRQAPGKERELVAGISRTGGRTYYADSVKGRFTISRDNAKNTVYLQMNSLKPEDTAVYYCAAVARRHKVYEYDYWGQGTQVTVSS: high polyreactivity
QVQLVESGGGLVQAGGSLRLRCATSGSIFRIYAMGWYRQAPGKERELVAAIDSGGSTNYADYVKGRFTISRDNAKNTVYFQMNCLKPEDTAVFYCNVEAWWLSYSEYDYWGQGTQVTVSS: high polyreactivity
QDQLVESGGGLVQAGGSLRLSCAASGRIFSRNAMGWYRQAPGKERELVAAITWRGGSTYYADSVKGRFTISRDNAKNTVYLQMTSLKPEDTAVYYCNRDYRQYGYAYSGRYYWGLGTQVTVSS: high polyreactivity
QVQLVESGGGLVQAGGSLRLSCAASGFTFPVNAMGWYRQAPGKERELVAAITSGGRTNYADSVKGRFTISRDNAKNTVYLQMNSLKPEDTAVYYCAAKFGYYWNSRTSGYWGQGTQVTVSS: high polyreactivity
